Catalogue of MIC readings, one per entry.
- Test system: Mutant-7 of Enterococcus fecalis NR 31975
- protocol details: microbe, parasite or virus in culture
- Type: cell-based
- condition details: Enterococcus
Response body: numeric value in µg/mL, unit text excluded.

>>> endpoint_result("CC(=O)Nc1nnc(S(N)(=O)=O)s1 [Acetazolamide, reference compound]")
16
>>> endpoint_result("CC(=O)NC[C@H]1CN(c2ccc(N3CCOCC3)c(F)c2)C(=O)O1 [Linezolid, reference compound]")
2
>>> endpoint_result("CC(C)(C)C(=O)Nc1nnc(S(N)(=O)=O)s1")
4
>>> endpoint_result("CCc1ccc(C(=O)Nc2nnc(S(N)(=O)=O)s2)cc1")
8

Please look at the following compound next.
Supply reported MIC belonging to this compound: CCCC(=O)Nc1nnc(S(N)(=O)=O)s1
8

---

- Test system: Enterococcus fecalis Strain SF24413 NR31971
- protocol details: MIC, broth microdilution in TSB
- Type: cell-based
- condition details: Enterococcus; TSB; Table 7; read-out: MIC in TSB
Rule: MIC below 0.2 µg/mL gives yes (1), anything at or above gives no (0).

Before answering, review these 3 worked examples.
>>> label_class("NS(=O)(=O)c1nnc(NC(=O)CC2CCCCC2)s1")
"yes (1)"
>>> label_class("CC(C)CC(=O)Nc1nnc(S(N)(=O)=O)s1")
"no (0)"
>>> label_class("CCCCCCC(=O)Nc1nnc(S(N)(=O)=O)s1")
"yes (1)"

Report whether reported MIC is lower than 0.2 µg/mL (strictly) for CCC(=O)Nc1nnc(S(N)(=O)=O)s1
no (0)

Report whether reported MIC is lower than 0.2 µg/mL (strictly) for CC(C)C(=O)Nc1nnc(S(N)(=O)=O)s1
no (0)

Report whether reported MIC is lower than 0.2 µg/mL (strictly) for CC(C)(C)C(=O)Nc1nnc(S(N)(=O)=O)s1
no (0)

Report whether reported MIC is lower than 0.2 µg/mL (strictly) for NS(=O)(=O)c1nnc(NC(=O)C2CC2)s1
yes (1)

Report whether reported MIC is lower than 0.2 µg/mL (strictly) for CC(=O)NC[C@H]1CN(c2ccc(N3CCOCC3)c(F)c2)C(=O)O1 [Linezolid, reference compound]
no (0)

Report whether reported MIC is lower than 0.2 µg/mL (strictly) for NS(=O)(=O)c1nnc(NC(=O)c2ccccc2)s1
no (0)

Report whether reported MIC is lower than 0.2 µg/mL (strictly) for CC(=O)Nc1nnc(S(N)(=O)=O)s1 [Acetazolamide, reference compound]
no (0)

---

- Test system: Enterococcus fecalis Strain SF24413 NR31971
- protocol details: MIC, broth microdilution in TSB
- Format: cell-based
- condition details: Enterococcus; TSB; Table 7; read-out: MIC in TSB
recorded metric: MIC (µg/mL)
Response body: numeric value in µg/mL, unit text excluded.

Example compounds with recorded MIC:
>>> endpoint_result("NS(=O)(=O)c1nnc(NC(=O)CC2CCCC2)s1")
0.06
>>> endpoint_result("CC(C)(C)CC(=O)Nc1nnc(S(N)(=O)=O)s1")
0.03
>>> endpoint_result("NS(=O)(=O)c1nnc(NC(=O)C2CCC2)s1")
1
>>> endpoint_result("NS(=O)(=O)c1nnc(NC(=O)C2CCCCC2)s1")
0.5
>>> endpoint_result("CCc1ccc(C(=O)Nc2nnc(S(N)(=O)=O)s2)cc1")
1

Please look at the following compound next.
Supply reported MIC belonging to this compound: NS(=O)(=O)c1nnc(NC(=O)C2CCCC2)s1
0.5
